Assay: Effect on contraction force of the heart, guinea pig papillary muscle (negative inotropy)
Format: cell-based, Meerschweinchen
Details: concentration that reduces the contraction of the papillary muscle by 20 %, read-out: C20_CF
Record form. Attribute: IC20. Fill in for each entry.

Solved cases (4 shown):
molecule	IC20
CCC(CO)NCC(O)COc1ccccc1CCC(=O)c1ccc(OC)c(OC)c1 (centres unmarked)	25 µM
COc1ccc(C(=O)CCc2ccccc2OCC(O)CNCC(C)O)cc1OC (centres unmarked)	18 µM
COc1cc(C(=O)CCc2ccccc2OCC(O)CNC(C)C)cc(OC)c1OC (centres unmarked)	18 µM
O=C(CCc1ccccc1OCC(O)CNC1CCCCC1)c1ccccc1 (centres unmarked)	2 µM

Given the entry COc1cc(C(=O)CCc2ccccc2OCC(O)CNC2CCCCC2)cc(OC)c1OC (centres unmarked) , report its measured IC20.
9 µM

* * *

Kindly state IC20 for each of the entries shown.
Test: Effect on contraction force of the heart, guinea pig papillary muscle (negative inotropy)
Assay type: cell-based, Meerschweinchen
Settings: concentration that reduces the contraction of the papillary muscle by 20 %, read-out: C20_CF
Text: Die Wirkung auf die Kontraktionskraft des Herzens wurde am Meerschweinchenpapillarmuskel untersucht. Hämodynamische Studien wurden bei gesunden, wie auch akut infarzierten Hunden durchgeführt.
Numbers only, in µM.

compound	IC20 / µM
CCC(C)(C)NCC(O)COc1ccccc1CCC(=O)c1ccc(OC)c(OC)c1 (centres unmarked)	8
CCCNCC(O)COc1ccccc1CCC(=O)c1cccc(OC)c1 (centres unmarked)	3
COc1ccc(C(=O)CCc2ccccc2OCC(O)CNC(C)(C)C)cc1OC (centres unmarked)	12
COc1ccccc1C(=O)CCc1ccccc1OCC(O)CNC(C)(C)C (centres unmarked)	7

Next, consider the following compound.
State the recorded IC20 for this entry: O=C(CCc1ccccc1OCC(O)CN1CCCCC1)c1ccccc1 (centres unmarked)
2

* * *

Assay: Effect on contraction force of the heart, guinea pig papillary muscle (negative inotropy)
Format: cell-based, Meerschweinchen
Details: concentration that reduces the contraction of the papillary muscle by 20 %, read-out: C20_CF
Task for the reader: assign each of the following compounds its reported IC20.
Numbers only, in µM.

See these solved cases before continuing.
compound	IC20 (µM)
CCCNCC(O)COc1ccccc1CCC(=O)c1ccc(OC)c(OC)c1 (centres unmarked) [Beispiel 1]	15
CC(C)(C)NCC(O)COc1ccccc1CCC(=O)c1ccccc1 (centres unmarked) [Beispiel 48]	3
Cc1ccc(C(=O)CCc2ccccc2OCC(O)CNC(C)(C)C)cc1 (centres unmarked) [Beispiel 44]	6
COc1cccc(C(=O)CCc2ccccc2OCC(O)CNC(C)(C)C)c1 (centres unmarked) [Beispiel 27]	4
COc1ccc(C(=O)CCc2ccccc2OCC(O)CNCCO)cc1OC (centres unmarked) [Beispiel 8]	13
COc1ccc(C(=O)CCc2ccccc2OCC(O)CNC(C)C)cc1OC (centres unmarked) [Beispiel 4]	22

Hi there! I need IC20 for each item below, if you can.
1. COc1cccc(C(=O)CCc2ccccc2OCC(O)CNC(C)C)c1 (centres unmarked) [Beispiel 24]
2. COc1ccc(C(=O)CCc2ccccc2OCC(O)CN2CCCCC2)cc1OC (centres unmarked) [Beispiel 6]

10
20

Data origin: patent EP0296264A1
